molecular target: bFGF (soluble stimulus added to cell cultures); assay: cell-based or functional assay
quantity_kind: IC50, proliferation of HDMEC cells +bFGF (10 ng/ml) (nM)
Report only the number, with the unit nM understood.

Item: Nb-FF2 (VHH, Bivalent monospecific tandem VHH for bFGF; with c-myc and histidine tag) QVQLVESGGGLVQPGGSLRLSCAASGTEDGRLLTLGGSWFRQAPGQGLEAVAAIGAGDRGGATYYADSVKGRFTISRDNSKNTLYLQMNSLRAEDTAVYYCTALYERQPQLAATKVARKWGQGTLVTVSSAHHSEDPSSKAPKAPAQVQLVESGGGLVQPGGSLRLSCAASGTEDGRLLTLGGSWFRQAPGQGLEAVAAIGAGDRGGATYYADSVKGRFTISRDNSKNTLYLQMNSLRAEDTAVYYCTALYERQPQLAATKVARKWGQGTLVTVSSAAAGSEQKLISEEDLNSHHHHHH | IC50, proliferation of HDMEC cells +bFGF (10 ng/ml): 50
